targetUnderTest: T1, Bcd homeodomain (Drosophila melanogaster, UniProt P09081-2 77-166)
T1 sequence: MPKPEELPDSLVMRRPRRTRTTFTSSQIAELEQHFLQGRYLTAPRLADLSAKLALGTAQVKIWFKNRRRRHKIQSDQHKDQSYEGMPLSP
assay: FP; 33 mM phosphate pH 7.0, 90 mM NaCl, 0.01% Tween 20, 0.1 mM DTT, 0.5% agarose; room temperature
conditionDescription: tags: N-GST (pGEX-6P-1, kept)
Below: a set of entries, each annotated with reported pKd.
Just the number, please; pKd means minus log10 of the concentration in mol/L.

Worked cases, pKd given:
Bcd oligo 6 (dsDNA) DNA 1: TCGACAGTAATCCCTA DNA 2: TAGGGATTACTGTCGA : 8.23
Bcd consensus (dsDNA) DNA 1: TCGACGGTAATCCCTA DNA 2: TAGGGATTACCGTCGA : 8.66

# input binder: Bcd oligo 5 (dsDNA) DNA 1: TCGACTGTAATCCCTA DNA 2: TAGGGATTACAGTCGA ; wanted: its pKd 8.18
